Biological target: T1, AAV2 (adeno-associated virus 2, UniProt P03135 1-735)
T1 construct: also called adeno-associated virus serotype 2
T1 sequence (P03135 whole entry): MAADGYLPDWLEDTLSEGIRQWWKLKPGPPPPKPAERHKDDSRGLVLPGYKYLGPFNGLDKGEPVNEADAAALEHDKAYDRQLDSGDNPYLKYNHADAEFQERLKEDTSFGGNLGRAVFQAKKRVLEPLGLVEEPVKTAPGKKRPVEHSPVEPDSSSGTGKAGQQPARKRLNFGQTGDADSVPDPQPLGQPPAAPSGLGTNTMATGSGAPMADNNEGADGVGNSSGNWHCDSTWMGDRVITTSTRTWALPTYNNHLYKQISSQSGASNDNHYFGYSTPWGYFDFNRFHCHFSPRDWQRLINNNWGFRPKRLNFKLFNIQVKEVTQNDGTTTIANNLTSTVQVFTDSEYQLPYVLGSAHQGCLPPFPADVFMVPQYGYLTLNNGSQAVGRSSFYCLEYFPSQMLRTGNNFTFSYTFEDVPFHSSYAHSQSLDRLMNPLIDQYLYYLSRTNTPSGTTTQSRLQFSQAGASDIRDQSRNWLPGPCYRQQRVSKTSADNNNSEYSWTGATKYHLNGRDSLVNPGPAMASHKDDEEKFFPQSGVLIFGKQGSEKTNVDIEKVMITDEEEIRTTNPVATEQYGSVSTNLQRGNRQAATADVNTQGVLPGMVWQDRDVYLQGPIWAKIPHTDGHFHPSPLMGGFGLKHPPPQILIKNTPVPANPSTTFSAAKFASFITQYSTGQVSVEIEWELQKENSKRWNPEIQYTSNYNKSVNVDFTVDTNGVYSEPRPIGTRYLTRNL
Test: SPR, AAV amine-coupled to CM5 chip;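 note: nanobodies flowed as analyte at seven concentrations spanning 1–100 nM over immobilized AAV (500–800 RU), kinetic constants derived by fitting the binding curves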
# log10 of koff values compiled below
property.measured: log10 of koff (log10 of the value in s⁻¹)

| binder | log10 of koff |
| --- | --- |
| A4-072 (VHH) VHH: VQLQESGGGLAQPGGSLRLSCAASGSSFVINTMGWYRQAPGKQREFVATVTRGGSTNYGEFVKGRFTISRDNAKNTVYLQMNSLRPEDTAVYYCHVDELRQSSWTTSNLWGQGTQVTVSS | -3.68 |
| A4-077 (VHH) VHH: VQLQESGGGLVQPGGSLRLSCAASGSMFSINIMGWYRQAPGKQREFVATITRGGSTNYADFVKGRFTISRDNAKNTVYLQMNSLRPEDTAVYYCHVDELRDSSWTTSNLWGQGTQVTVSS | -3.34 |
| A4-093 (VHH) VHH: VQLQESGGGLVQTGGSLRLSCAASGSIFIINTMGWYRQRAGKQRELVATVTRGGSTNYADSVKGRFTISRDNAKNTVYLQMNTLRPEDTAVYYCHVDELRQSSWTTSNLWGQGTQVTVSS | -2.99 |
| A4-088 (VHH) VHH: VQLQESGGGLVQTGGSLRLSCAASGSRFSLNTMGWYRQAPGKQRELVAAVTRGGNTNYGDFVKGRFTISRDNAKNTVYLQMNSLRPEDTAVYYCHVDELRESSWTTSNLWGQGTQVTVSS | -2.00 |
| A4-054 (VHH) VHH: VQLQESGGGLVQPGGSLRLSCAASGSAFSINTMGWYRQAPGKQRELVAAVTRGGSTNYADSVKGRFTISRDNAKNTVYLQMNSLRPEDTAVYYCHVDEVRQSSWTTSNLWGQGTQVTVSS | -2.94 |
| A4-074 (VHH) VHH: VQLQESGGGLVQSGGSLRLSCAASGSMFSLNTMGWYRQAPGKQRELVATITRGGGTSYADSVKGRFTISRDNAKNTVYLQMNSLRPEDTAVYYCHVDELRQSSWTTSNLWGQGTQVTVSS | -2.80 |
| A4-067 (VHH) VHH: VQLQESGGGLVQTGGSLRLSCAASGRAFSLNTMGWYRQAPGKWRELVATVTRGGSTNYAGSVKGRFTISRDNTKNTVYLQMNNLRPEDTAVYYCHVDEVRESSWTTSNLWGQGTQVTVSS | -4.52 |
| A4-056 (VHH) VHH: VQLQESGGGLVQPGGSLRLSCAASGSAFSINTMGWYRQAPGKQREKVAAVTRGGSTNYADSVKGRFTISRDNAKNTVYLQMNSLRPEDTAVYYCHVDEVRQSSWTTSNLWGQGTQVTVSS | -2.31 |
| A4-099 (VHH) VHH: VQLQESGGGLVQTGGSLRLSCAASGSSFSINTMGWYRQAPGKWRELVAAVTRGGDTNYAESVKGRFTISRDNGKNTVYLQMNSLRPEDTAVYYCHIDEIRESSWTTSNLWGQGTQVTVSS | -3.68 |
| A4-051 (VHH) VHH: VQLQESGGGLVQPGGSLRLSCAASGSSFVINTMGWYRRAPGKQRELVAAVTRGGSTNYADSVKGRFTISRDNAKNTVYLQMNSLRPEDTAVYYCHVDEVRQSSWTTSNLWGQGTQVTVSS | -2.49 |
